# IC50 values compiled below
# Tested on: COR-L23;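 also: cell viability assay measuring how strongly compounds suppress growth of COR-L23 cells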
# TEST_METHOD_NOTES: cells
# Assay type: functional, cell-based, Homo sapiens
# MEASUREMENT_PARAMETERS: Homo sapiens, COR-L23
# Description: SANGER: Inhibition of human COR-L23 cell growth in a cell viability assay.
ASSAY_METRIC: IC50

INSERT INTO assay_data (smiles, assayed_target, result) VALUES
  ('O=C1N=C(NCc2cccs2)S/C1=C\c1ccc2ncccc2c1', 'COR-L23', '> 5 µM'),
  ('COc1ccc(-c2ccc3c(N4CCOC[C@@H]4C)nc(N4CCOC[C@@H]4C)nc3n2)cc1CO', 'COR-L23', '1.35 µM'),
  ('COC(=O)CNC(=O)C(=O)OC', 'COR-L23', '1880 µM'),
  ('C=CCc1cccc(/C=N/NC(=O)CN2CCN(Cc3ccccc3)CC2)c1O', 'COR-L23', '> 2.56 µM'),
  ('CCOc1nc(NC(=O)Cc2cc(OC)ccc2OC)cc(N)c1C#N', 'COR-L23', '> 10 µM'),
  ('CN(C)C/C=C/C(=O)Nc1cc2c(Nc3ccc(F)c(Cl)c3)ncnc2cc1O[C@H]1CCOC1', 'COR-L23', '> 0.5 µM'),
  ('CN(c1ncccc1CNc1nc(Nc2ccc3c(c2)CC(=O)N3)ncc1C(F)(F)F)S(C)(=O)=O', 'COR-L23', '> 2.56 µM'),
  ('Cc1ccc(Nc2nccc(N(C)c3ccc4c(C)n(C)nc4c3)n2)cc1S(N)(=O)=O', 'COR-L23', '> 8 µM');

====

# Tested on: SNU1;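 also: growth inhibition of human NCI-SNU-1 cells, measured with a cell viability assay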
# TEST_METHOD_NOTES: cells
# Type: functional, cell-based
# MEASUREMENT_PARAMETERS: Homo sapiens
# Description: SANGER: Inhibition of human NCI-SNU-1 cell growth in a cell viability assay.
Just a reminder that ties go to no: only IC50 strictly below 30 nM counts as yes.

INSERT INTO results (compound, group_label) VALUES
  ('CCC1=C[C@@H]2CN(C1)Cc1c([nH]c3ccccc13)[C@@](C(=O)OC)(c1cc3c(cc1OC)N(C)[C@H]1[C@@](O)(C(=O)OC)[C@H](OC(C)=O)[C@]4(CC)C=CCN5CC[C@]31[C@@H]54)C2', 'no'),
  ('Cc1cnc(-c2cnc(NCCNc3ccc(C#N)cn3)nc2-c2ccc(Cl)cc2Cl)[nH]1', 'no'),
  ('CN(Cc1cnc2nc(N)nc(N)c2n1)c1ccc(C(=O)N[C@@H](CCC(=O)O)C(=O)O)cc1 [METHOTREXATE]', 'yes'),
  ('O=C(NOCC1CC1)c1ccc(F)c(F)c1Nc1ccc(I)cc1Cl', 'no'),
  ('C=CCNC1=C2C[C@@H](C)C[C@H](OC)[C@H](O)[C@@H](C)/C=C(\C)[C@H](OC(N)=O)[C@@H](OC)/C=C\C=C(/C)C(=O)NC(=CC1=O)C2=O', 'yes'),
  ('Nc1ccn([C@@H]2O[C@H](CO)[C@@H](O)[C@@H]2O)c(=O)n1', 'no'),
  ('C[C@]1(O)C[C@@H](c2nc(-c3ccc4ccc(-c5ccccc5)nc4c3)c3c(N)nccn32)C1', 'no');

====

# Test system: CCRF-CEM;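 also: inhibition of CCRF-CEM cell growth, measured by a cell viability assay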
# TEST_METHOD_NOTES: cells
# Assay type: functional, cell-based
# MEASUREMENT_PARAMETERS: Homo sapiens
# Description: SANGER: Inhibition of human CCRF-CEM cell growth in a cell viability assay.
pIC50: −log10 of the molar value.
# pIC50 values compiled below
ASSAY_METRIC: pIC50

INSERT INTO results (molecule, assayed_target, result) VALUES
  ('CCC(=O)N1CCN(c2ccc(-n3c(=O)ccc4cnc5ccc(-c6cnc7ccccc7c6)cc5c43)cc2C(F)(F)F)CC1 [TORIN1]', 'CCRF-CEM', 7.47),
  ('O=C(NOCC1CC1)c1ccc(F)c(F)c1Nc1ccc(I)cc1Cl [CI-1040]', 'CCRF-CEM', '< 5.00'),
  ('CN(Cc1cnc2nc(N)nc(N)c2n1)c1ccc(C(=O)N[C@@H](CCC(=O)O)C(=O)O)cc1 [METHOTREXATE]', 'CCRF-CEM', '< 6.70');
